Just for reference, PubChem BioAssay (NCATS) is where these values come from.

- Method Summary: qHTS Assay for Lipid Storage Modulators (AID 1519)
- Condition Info: Drosophila S3 cells, BODIPY lipid droplet/cell ratio, laser cytometry; measured here: cell count channel max response; cells loaded with oleic acid
Results filed as inconclusive are left out.
Quantity Measured: max response (%)
Numbers only here, please. The scale is %.

Would you please look over these solved cases?
[
  {
    "Molecule": "CN(C)CCc1c[nH]c2ccc(Cn3cncn3)cc12",
    "Observed": 14.1
  },
  {
    "Molecule": "COc1c2occc2cc2ccc(=O)oc12",
    "Observed": -4.25
  },
  {
    "Molecule": "CC(=O)O[C@H]1C(=O)[C@@]2(C)C([C@H](OC(=O)c3ccccc3)[C@]3(O)C[C@H](OC(=O)[C@H](O)[C@@H](NC(=O)c4ccccc4)c4ccccc4)C(C)=C1C3(C)C)[C@]1(OC(C)=O)CO[C@@H]1C[C@@H]2O (some centres not stated)",
    "Observed": -13.9
  },
  {
    "Molecule": "Cc1cc2c(s1)Nc1ccccc1N=C2N1CCN(C)CC1",
    "Observed": -2.56
  },
  {
    "Molecule": "O=c1c(O)c(-c2ccc(O)cc2O)oc2cc(O)cc(O)c12",
    "Observed": 2.76
  },
  {
    "Molecule": "CCOc1cc(CC(=O)N[C@@H](CC(C)C)c2ccccc2N2CCCCC2)ccc1C(=O)O",
    "Observed": -5.3
  },
  {
    "Molecule": "O=C(NC(Cc1cc(=O)[nH]c2ccccc12)C(=O)O)c1ccc(Cl)cc1 (configuration not stated)",
    "Observed": 17.3
  },
  {
    "Molecule": "CCC1=C(C)CN(C(=O)NCCc2ccc(S(=O)(=O)NC(=O)NC3CCC(C)CC3)cc2)C1=O (configuration not stated)",
    "Observed": -5.01
  },
  {
    "Molecule": "Cc1cc2cc3c(C)cc(=O)oc3c(C)c2o1",
    "Observed": -4.86
  },
  {
    "Molecule": "Oc1ccc(OCc2ccccc2)cc1",
    "Observed": -20
  }
]

// fetch max response given entry O=c1oc2cc(O)ccc2s1 14.5

// fetch max response given entry Cc1cccc(C#Cc2ccccc2)n1 -2.56

// fetch max response given entry NCCCCNCCCN 7.14

* * *

- Tested on: CP252
- Method Summary: qHTS profiling for inhibitors of Plasmodium falciparum proliferation (AID 504749); note: nearly all actives have a fitted effect of over 60% in size
- Condition Info: P. falciparum in erythrocytes, SYBR Green DNA, 72 h; series mostly up to 28.7 µM
Results filed as inconclusive are left out. The source made the active and inactive calls. The call rests on the fitted dose curve; in most records, active means well fitted inhibition curve with a large enough effect; inconclusive means small, poorly fitted or top-dose-only effect; inactive means flat fitted curve, though single readings scatter. Peptide text beside a SMILES is read from it.
Could you please pick one outcome from this set? active, inactive

Solved cases (10 shown):
[
  {
    "Compound": "COC(=O)[C@H](Cc1ccccc1)NC(=O)[C@@H](N)CC(=O)O (H-Asp-Phe-OMe)",
    "Assigned Class": "inactive"
  },
  {
    "Compound": "Clc1ccc(C(Cn2ccnc2)OCc2ccsc2Cl)c(Cl)c1 (stereo unspecified)",
    "Assigned Class": "active"
  },
  {
    "Compound": "C=CCc1cc(OC)c(O)c(C(=O)NCCO)c1",
    "Assigned Class": "inactive"
  },
  {
    "Compound": "CC[C@]1(O)C[C@H]2CN(CCc3c([nH]c4ccccc34)[C@@](C(=O)OC)(c3cc4c(cc3OC)N(C=O)[C@H]3[C@@](O)(C(=O)OC)[C@H](OC(C)=O)[C@]5(CC)C=CCN6CC[C@]43[C@@H]65)C2)C1",
    "Assigned Class": "active"
  },
  {
    "Compound": "COCCCOc1ccnc(CS(=O)c2nc3ccccc3[nH]2)c1C (stereo unspecified)",
    "Assigned Class": "inactive"
  },
  {
    "Compound": "O=C(CS(=O)Cc1ccco1)NCC=CCOc1cc(CN2CCCCC2)ccn1 (stereo unspecified)",
    "Assigned Class": "inactive"
  },
  {
    "Compound": "N=C(N=C(N)N)N1CCOCC1",
    "Assigned Class": "inactive"
  },
  {
    "Compound": "Cc1cc(C2CCCCC2)n(O)c(=O)c1",
    "Assigned Class": "active"
  },
  {
    "Compound": "C[C@]12CCC(=O)C=C1CC[C@@H]1[C@H]2[C@@H](O)C[C@@]2(C)[C@H]1CC[C@]2(O)C(=O)CO",
    "Assigned Class": "inactive"
  },
  {
    "Compound": "Cc1c(OCC(F)(F)F)ccnc1CS(=O)c1nc2ccccc2[nH]1 (stereo unspecified)",
    "Assigned Class": "inactive"
  }
]

Now take the following compound into account.
In this assay, the call recorded for CN(C)CCc1c[nH]c2ccc(Cn3cncn3)cc12 was what? inactive
